B1: CLPTM1 (parent)
chain: LGCYAVYSLLYLEHKGWYSWVLSM

# Variants of: B1
# protocol: protein stability index of a GFP-peptide fusion (GPS, HEK-293T) (PSI 1-6); higher = more stable;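 also: lentivirally expressed fusions sorted by FACS into six bins by GFP to DsRed ratio, PSI derived from sequencing read proportions per bin multiplied by bin number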
# applied_conditions: c terminus: a fixed tail appended
Some variants, each annotated with its measured protein stability index.

# item_sequence, protein stability index
records = [
    ("LGCYAVYSLLYLEHKGWYSWVLSW", 3.77),
    ("LGCYAVYSLLYLEHKGWYSWVESM", 3.17),
    ("LGCYAVYSLLYWEHKGWYSWVLSM", 2.4),
    ("LGCYAVYSLLYLYHKGWYSWVLSM", 2.12),
    ("LGCMAVYSLLYLEHKGWYSWVLSM", 3.4),
    ("LGCYAVYSLLGLEHKGWYSWVLSM", 4.08),
    ("LGCYAVYSLLYLEHKGWCSWVLSM", 1.27),
    ("LGCYAVYSLLYLEHKGWYQWVLSM", 3.63),
    ("LGCYNVYSLLYLEHKGWYSWVLSM", 4.03),
    ("LGCYAVYSLLYLEHKGWYSWCLSM", 4.16),
    ("LGCYAVYSLLYLEHKGWNSWVLSM", 3.45),
    ("LGCDAVYSLLYLEHKGWYSWVLSM", 1.9),
    ("LGCYAVYSLLYLEHKGIYSWVLSM", 2.71),
    ("LGCYAVYSLLYLEHKGWYSWVFSM", 3.46),
    ("LGCYAVYSLLYLEHKGRYSWVLSM", 2.16),
    ("LGGYAVYSLLYLEHKGWYSWVLSM", 2.35),
    ("LYCYAVYSLLYLEHKGWYSWVLSM", 3.37),
    ("LNCYAVYSLLYLEHKGWYSWVLSM", 3.83),
    ("LGCYAVYSLLYLEHKGWYSWVLSE", 5.08),
    ("LGCWAVYSLLYLEHKGWYSWVLSM", 2.19),
    ("LGCYAVYSLLYLEHKGWYGWVLSM", 2.71),
    ("LGCYAVYSLLYLEHKGWYSWVLVM", 1.82),
    ("LGEYAVYSLLYLEHKGWYSWVLSM", 3.26),
    ("LGCYAVYSLLYLEHKGEYSWVLSM", 2.81),
    ("LGCNAVYSLLYLEHKGWYSWVLSM", 3.2),
    ("LGCYAVVSLLYLEHKGWYSWVLSM", 3.4),
    ("LGCYAVYWLLYLEHKGWYSWVLSM", 1.43),
    ("LGCYAVMSLLYLEHKGWYSWVLSM", 3.54),
    ("LGCYAVYSLLYLEHKGWYFWVLSM", 2.47),
    ("LGCYAVYSLLYLEHKGWYSWVLSF", 4.41),
    ("LGCSAVYSLLYLEHKGWYSWVLSM", 3.75),
    ("LGCYAVYSLLYLEHKGWYSWVRSM", 2.45),
    ("LGCYAVDSLLYLEHKGWYSWVLSM", 3.78),
]
